System under test: hCA XII (Homo sapiens, UniProt O43570)
Construct: gene CA12; recombinant from E. coli; transmembrane isoform with extracellular catalytic domain
Sequence (O43570 30-289 limits assumed): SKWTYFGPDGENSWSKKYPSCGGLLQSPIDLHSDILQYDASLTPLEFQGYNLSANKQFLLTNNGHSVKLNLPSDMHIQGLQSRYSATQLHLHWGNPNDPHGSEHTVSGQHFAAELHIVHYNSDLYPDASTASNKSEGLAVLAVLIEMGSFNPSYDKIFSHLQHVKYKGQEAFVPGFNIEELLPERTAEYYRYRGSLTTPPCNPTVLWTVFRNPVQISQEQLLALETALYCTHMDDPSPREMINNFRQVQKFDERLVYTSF
Experiment description: stopped-flow CO2 hydration assay
Format: biochemical
Threshold 90 nM: Ki strictly smaller gives label 1, otherwise label 0.

Take a look at these entries with their results.
Find out if reported Ki for CC=NNC(=O)c1[nH]c2ccc(S(N)(=O)=O)cc2c1-c1ccccc1 is less than 90 nM
label 1

Find out if reported Ki for NS(=O)(=O)c1ccc2[nH]c(C(=O)NN=Cc3cccnc3)c(-c3ccccc3)c2c1 is less than 90 nM
label 1

Find out if reported Ki for CC(CC(C)C)=NNC(=O)c1[nH]c2ccc(S(N)(=O)=O)cc2c1-c1ccccc1 is less than 90 nM
label 1

Find out if reported Ki for NS(=O)(=O)c1ccc2[nH]c(C(=O)NN=C3CCN(Cc4ccccc4)CC3)c(-c3ccccc3)c2c1 is less than 90 nM
label 1

Find out if reported Ki for CCC1CCC(=NNC(=O)c2[nH]c3ccc(S(N)(=O)=O)cc3c2-c2ccccc2)CC1 (stereo not drawn) is less than 90 nM
label 0

Find out if reported Ki for NS(=O)(=O)c1ccc2[nH]c(C(=O)NN=Cc3ccncc3)c(-c3ccccc3)c2c1 is less than 90 nM
label 1

Find out if reported Ki for CCCC1CCC(=NNC(=O)c2[nH]c3ccc(S(N)(=O)=O)cc3c2-c2ccccc2)CC1 (stereo not drawn) is less than 90 nM
label 0

Find out if reported Ki for NS(=O)(=O)c1ccc2[nH]c(C(=O)NN=Cc3c[nH]c4ccccc34)c(-c3ccccc3)c2c1 is less than 90 nM
label 1

Find out if reported Ki for NS(=O)(=O)c1ccc2[nH]c(C(=O)NN=C3CCC(c4ccccc4)CC3)c(-c3ccccc3)c2c1 (stereo not drawn) is less than 90 nM
label 1

Find out if reported Ki for NS(=O)(=O)c1ccc2[nH]c(C(=O)NN=Cc3ccc(Br)s3)c(-c3ccccc3)c2c1 is less than 90 nM
label 1

More entries:
Find out if reported Ki for CC1CCC(=NNC(=O)c2[nH]c3ccc(S(N)(=O)=O)cc3c2-c2ccccc2)CC1 (stereo not drawn) is less than 90 nM
label 0

Find out if reported Ki for Cn1cccc1C=NNC(=O)c1[nH]c2ccc(S(N)(=O)=O)cc2c1-c1ccccc1 is less than 90 nM
label 1

Find out if reported Ki for CN1CCC(=NNC(=O)c2[nH]c3ccc(S(N)(=O)=O)cc3c2-c2ccccc2)CC1 is less than 90 nM
label 1

Find out if reported Ki for NS(=O)(=O)c1ccc2[nH]c(C(=O)NN=C3CCCCC3)c(-c3ccccc3)c2c1 is less than 90 nM
label 1

Find out if reported Ki for NS(=O)(=O)c1ccc2[nH]c(C(=O)NN=Cc3cccs3)c(-c3ccccc3)c2c1 is less than 90 nM
label 1

Find out if reported Ki for CCC(CC)=NNC(=O)c1[nH]c2ccc(S(N)(=O)=O)cc2c1-c1ccccc1 is less than 90 nM
label 1
